For each entry below, report its pIC50 value.
target: TbKKT19 (Trypanosoma brucei, UniProt Q382T9); construct: gene Tb11.01.4250; recombinant His-tagged, full-length TbKKT19; assay: ADP Hunter Plus kinase assay, KKL peptide, […] ATP; potency shift at […] ATP; type: biochemical
Sequence (Q382T9 1-484): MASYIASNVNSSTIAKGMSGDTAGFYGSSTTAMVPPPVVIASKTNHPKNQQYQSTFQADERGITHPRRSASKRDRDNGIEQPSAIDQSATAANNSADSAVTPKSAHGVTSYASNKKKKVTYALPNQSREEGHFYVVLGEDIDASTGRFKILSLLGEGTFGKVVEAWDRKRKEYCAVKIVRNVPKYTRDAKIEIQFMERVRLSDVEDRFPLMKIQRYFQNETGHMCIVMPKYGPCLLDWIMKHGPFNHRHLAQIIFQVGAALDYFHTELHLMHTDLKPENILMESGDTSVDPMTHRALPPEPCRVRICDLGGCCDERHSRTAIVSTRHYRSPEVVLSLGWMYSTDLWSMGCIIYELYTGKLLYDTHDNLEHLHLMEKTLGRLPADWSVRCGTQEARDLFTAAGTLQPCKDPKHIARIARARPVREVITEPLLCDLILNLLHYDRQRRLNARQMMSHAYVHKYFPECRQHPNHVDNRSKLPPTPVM
Numbers only, as −log10 of the molar value.

Problem: Please report the recorded pIC50 for `COc1cc(O)c2c(c1)[C@H]1O[C@@H]1C[C@H](O)[C@H](O)C(=O)/C=C\C[C@H](C)OC2=O` .
Result: 7.19

Others:
Problem: Please report the recorded pIC50 for `CN[C@@H]1C[C@H]2O[C@@](C)([C@@H]1OC)n1c3ccccc3c3c4c(c5c6ccccc6n2c5c31)C(=O)NC4` .
Result: 6.54
